ASSAY SYSTEM: T1, human PVRIG expressed on cells (human, UniProt Q6DKI7 41-326)
T1 sequence (looked up): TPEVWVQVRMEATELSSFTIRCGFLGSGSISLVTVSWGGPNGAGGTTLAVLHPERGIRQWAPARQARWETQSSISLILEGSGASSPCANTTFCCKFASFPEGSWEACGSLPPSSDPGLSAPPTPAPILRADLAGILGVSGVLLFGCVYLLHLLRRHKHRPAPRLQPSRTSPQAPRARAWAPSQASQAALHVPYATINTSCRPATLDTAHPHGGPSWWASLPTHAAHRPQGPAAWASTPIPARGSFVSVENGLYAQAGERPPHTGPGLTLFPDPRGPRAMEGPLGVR
PROTOCOL SUMMARY: cell-based or functional assay
Exercise: for every item that follows, state its recorded PVRIG reporter gene cell activity EC50.
Give the value in nM but do not write nM after it.

Endpoint output: PVRIG reporter gene cell activity EC50 of humanized anti-PVRIG antibody 20H5 (antibody, human IgG4 S228P, F234A L235A, V domains shown) VH: EVQLVESGGGLVQPGGSLRLSCAASGYTSRTDCMGWFRQAPGKEHEGVAHIDSDGIPRYVDSVKGRFTISQDHAKNSLYLQMNSLRAEDTAVYYCVVGFKFDEDYCAPNDWGQGTMVTVSS . Value?
0.042

Please look up its PVRIG reporter gene cell activity EC50: humanized anti-PVRIG antibody 30H3 (antibody, human IgG4 S228P, F234A L235A, V domains shown) VH: EVQLVESGGGLVQPGGSLRLSCAASGYSYSGDCMGWFRQAPGKGLDEGVATIDNAGRIKYADSVKGRFTISRDNAKNSLYLQMNSLRAEDTAVYYCAAGWTFGGQCSPADWGQGTQVTVSS
0.078

Look up PVRIG reporter gene cell activity EC50 for this binder: humanized anti-PVRIG antibody 39H1 (antibody, human IgG4 S228P, F234A L235A, V domains shown) VH: EVQLVESGGGLVQPGGSLRLSCAASGFTFSTDCMGWFRQAPGKGLEGVAHIDSDGIPRYVESVKGRFTISRDNAKNSLYLQMNSLRAEDTAVYYCVVGFKFGDYCAPNDWGQGTMVTVSS
0.191

Requested field: PVRIG reporter gene cell activity EC50. Item: humanized anti-PVRIG antibody 30H2 (antibody, human IgG4 S228P, F234A L235A, V domains shown) VH: EVQLVESGGGLVQPGGSLRLSCAASGFTFSGDCMGWFRQAPGKGLDEGVATIDNAGRIKYADSVKGRFTISRDNAKNSLYLQMNSLRAEDTAVYYCAAGWTFGGQCSPADWGQGTQVTVSS
0.176

# PVRIG reporter gene cell activity EC50 lookup, item humanized anti-PVRIG antibody 151H4 (antibody, human IgG4 S228P, F234A L235A, V domains shown) VH: EVQLVESGGGLVQPGGSLRLSCVASASGFTYRPYCMAWFRQAPGKGLEAVAGIDIFGGTTYADSVKGRFTISRDNAKNSLYLQMNSLRAEDTAVYYCAAGDSPDGRCPPLGQGLNYWGQGTMVTVSS
3.55

Which measured PVRIG reporter gene cell activity EC50 value corresponds to humanized anti-PVRIG antibody 39H2 (antibody, human IgG4 S228P, F234A L235A, V domains shown) VH: EVQLVESGGGLVQPGGSLRLSCAASGFTSRTDCMGWFRQAPGKGLEGVAHIDSDGIPRYVESVKGRFTISRDNAKNSLYLQMNSLRAEDTAVYYCVVGFKFGDYCAPNDWGQGTMVTVSS ?
0.074
